# test.method.notes: chemical genetic growth profiling, strain panel (AID 1159580);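 also: tested at 20 µM; growth read once vehicle control cultures reached saturation at 30 °C; 1 = growth at the plate median or of vehicle wells; lower values mean less growth of the strain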
# applied.conditions: S. cerevisiae deletion strains, growth OD, locus YNL248C, strain rpa49
In all, about 5,500 compounds went through this assay and about 2,000 (36%) were called active. About 18% were inconclusive and are not listed. Rule as the data show it: active = normalized growth mostly below about 0.91 (no sharp cut-off); inconclusive = no clear call, values can overlap the other calls; inactive = mostly above about 0.92. The list shows a part of the results.
Tick one outcome: 1.0 for active, 0.0 for inactive

Q. I would be grateful if you could indicate the recorded call for CO/N=C(\C(=O)NC1C(=O)N2C(C(=O)OC(C)OC(C)=O)=C(COC(N)=O)CSC12)c1ccco1 (stereo not given) .
A. 0.0

Q. Also check COc1ccc([C@H]2Oc3cc(OC)cc(OC)c3C[C@H]2O)cc1
A. 0.0

Q. Also check CC1OC1P(=O)(O)O (stereo not given)
A. 0.0

Q. Also check O=C1C=C2C=C[C@@H]3C[C@@]2(O1)[C@H]1CCCCN31
A. 0.0

Q. Also check C=CC(N)CCC(=O)O (stereo not given)
A. 0.0

Q. Also check Clc1cccc(Cl)c1NC1=NCCN1
A. 0.0

Q. Also check C=C1CCC2C(CC2(C)C)C(=O)CCC1O (stereo not given)
A. 0.0

Q. Also check CC(C(=O)O)c1ccc(C(=O)c2cccs2)cc1 (stereo not given)
A. 0.0

Q. Also check NS(=O)(=O)c1cc2c(cc1Cl)NC(C(Cl)Cl)NS2(=O)=O (stereo not given)
A. 0.0

Q. Also check Nc1nc2ncc(=O)[nH]c2c(=O)[nH]1
A. 0.0

Q. Also check CO/N=C(\C(=O)N[C@@H]1C(=O)N2C(C(=O)O)=C(COC(C)=O)CS[C@H]12)c1csc(N)n1
A. 0.0

Q. Also check CO/N=C(\C(=O)NC1C(=O)N2C(C(=O)O)=C(COC(N)=O)CSC12)c1ccco1 (stereo not given)
A. 0.0

Q. Also check COc1ccc2c(c1)O[C@H]1c3ccc(OC)cc3OC[C@@H]21
A. 0.0

Q. Also check Cc1cccc(C)c1NC1=NCCCS1
A. 0.0

Q. Also check COC(=O)C[C@H]1C(C)(C)C(=O)[C@@H]2CC3=C(CC[C@]4(C)C3=CC(=O)O[C@H]4c3ccoc3)[C@@]1(C)C2=O
A. 0.0

Q. Also check Cc1ccc(Cl)c(Nc2ccccc2C(=O)O)c1Cl
A. 0.0

Q. Also check CO[C@@]1(NC(=O)CSCC#N)C(=O)N2C(C(=O)O)=C(CSc3nnnn3C)CSC21 (stereo not given in full)
A. 0.0

Q. Also check C=C1CCC2C(CC2(C)C)C(=C)CC/C1=N\O (stereo not given)
A. 0.0

Q. Also check COc1ccc2c(c1OC)C(=O)OC2[C@H]1c2c(cc3c(c2OC)OCO3)CCN1C (stereo not given in full)
A. 0.0

Q. Also check CC(=O)Oc1c(C)cccc1C(=O)O
A. 0.0

Q. Also check C=C1CCC(OC(C)=O)/C(C)=C/C[C@@H]2[C@@H]1CC2(C)C (stereo not given in full)
A. 0.0

Q. Also check CC(C)[C@@H]1CC[C@@H](C)C[C@H]1O
A. 0.0

Q. Also check Cc1c(Cl)cccc1Nc1ccccc1C(=O)O
A. 1.0

Q. Also check COC(=O)C(O)c1ccccc1 (stereo not given)
A. 0.0

Q. Also check Cc1cccc(Nc2ccccc2C(=O)O)c1C
A. 0.0

* * *

# test.method.notes: chemical genetic growth profiling, strain panel (AID 1159580);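 also: tested at 20 µM; growth read once vehicle control cultures reached saturation at 30 °C; 1 = growth at the plate median or of vehicle wells; lower values mean less growth of the strain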
# applied.conditions: S. cerevisiae deletion strains, growth OD, locus YER167W, strain BCK2
Hit rate of the full screen: of about 5,500 compounds, about 2,000 (36%) were called active. Not shown: some 18% with an inconclusive outcome. Cut-off read from the data, not from the text of the source: active = normalized growth mostly below about 0.91 (no sharp cut-off); inconclusive = no clear call, values can overlap the other calls; inactive = mostly above about 0.92. The list shows a part of the results.
Tick one outcome: true (active), false (inactive)

Q. I would be grateful if you could indicate the recorded call for COc1ccc([C@H]2Oc3cc(OC)cc(OC)c3C[C@H]2O)cc1 .
A. false

Q. Also check Cc1cc(-c2ccccc2)nnc1NCCN1CCOCC1
A. false

Q. Also check CC1(C)O[C@@H]2CC3C4CCC5=CC(=O)CCC5(C)C4(F)C(O)CC3(C)[C@]2(C(=O)CCl)O1 (stereo partly specified)
A. false

Q. Also check C=C1CCC2C(CC2(C)C)C(=C)CC/C1=N\O (stereo unspecified)
A. false

Q. Also check CC1=CC2C(CC1=O)C(C)=CCC2C(C)C (stereo unspecified)
A. false

Q. Also check C=C1CCC(OC(C)=O)/C(C)=C/C[C@@H]2[C@@H]1CC2(C)C (stereo partly specified)
A. false

Q. Also check Cc1c(Cl)cccc1Nc1ccccc1C(=O)O
A. true

Q. Also check NS(=O)(=O)c1cc2c(cc1Cl)NC(C(Cl)Cl)NS2(=O)=O (stereo unspecified)
A. false

Q. Also check COc1ccc2c(c1O)OCC1c3cc4c(cc3OC21)OCO4 (stereo unspecified)
A. false

Q. Also check Oc1ccc(Cl)cc1Cc1cc(Cl)ccc1O
A. true

Q. Also check CCCC(=O)O[C@]1(C(=O)CO)CCC2[C@@H]3CCC4=CC(=O)CC[C@]4(C)C3[C@@H](O)C[C@@]21C (stereo partly specified)
A. false

Q. Also check CCN(CC)C(=O)c1cccc(C)c1
A. false

Q. Also check Oc1ccc2c(c1)OCC1c3cc4c(cc3OC21)OCO4 (stereo unspecified)
A. false

Q. Also check COc1ccc(CCN2CCC(Nc3nc4ccccc4n3Cc3ccc(F)cc3)CC2)cc1
A. false

Q. Also check CO/N=C(\C(=O)NC1C(=O)N2C(C(=O)O)=C(COC(N)=O)CSC12)c1ccco1 (stereo unspecified)
A. true

Q. Also check CC(C)[C@@H]1CC[C@@H](C)C[C@H]1O
A. false

Q. Also check O=C(O)c1cc2cc(Cc3cccnc3)ccc2o1
A. false

Q. Also check CC(C)(C)CC(C)(C)c1ccc(O)c(Cc2ccc(Cl)cc2Cl)c1
A. false

Q. Also check CO/N=C(\C(=O)N[C@@H]1C(=O)N2C(C(=O)O)=C(COC(C)=O)CS[C@H]12)c1csc(N)n1
A. false

Q. Also check CCOC(=O)[C@H](CCc1ccccc1)N[C@@H](C)C(=O)N1[C@H](C(=O)O)C[C@@H]2CCC[C@@H]21
A. false

Q. Also check C[N+]1(C)C2CC(OC(=O)[C@@H](CO)c3ccccc3)CC1C1OC12 (stereo partly specified)
A. false

Q. Also check O=C(C1CCCCC1)N1CC(=O)N2CCc3ccccc3C2C1 (stereo unspecified)
A. false

Q. Also check CCCCN1CCCCC1C(=O)Nc1c(C)cccc1C (stereo unspecified)
A. false

Q. Also check Cc1cccc(C(=O)O)c1O
A. false

Q. Also check COc1cc2c(cc1OC)C1Cc3ccc(OC)c(OC)c3CN1CC2 (stereo unspecified)
A. false

Q. Also check C=C1CCC2C(CC2(C)C)C(=O)CCC1O (stereo unspecified)
A. false

Q. Also check CC1(C)C2CC(=O)[C@]3(C)C(CC[C@@]4(C)[C@H](c5ccoc5)OC(=O)[C@H]5O[C@]543)[C@@]2(C)C=C[C@@H]1O (stereo partly specified)
A. false

Q. Also check Cc1cc(NC(=O)C2=C(O)c3ccccc3S(=O)(=O)N2C)no1
A. false

Q. Also check COc1cc([C@@H]2c3cc4c(c(O)c3C[C@H]3COC(=O)[C@@H]32)OCO4)cc(OC)c1OC
A. false

Q. Also check CC(C)NNC(=O)c1ccncc1
A. false

Q. Also check COc1ccc2c(c1OC)C(=O)OC2[C@H]1c2c(cc3c(c2OC)OCO3)CCN1C (stereo partly specified)
A. false

Q. Also check Oc1ccc(Cl)cc1
A. false

Q. Also check CO/N=C(\C(=O)N[C@@H]1C(=O)N2C(C(=O)O)=C(CSc3nc(=O)c(O)nn3C)CS[C@H]12)c1csc(N)n1
A. false

Q. Also check NC(=O)c1cccc(N)c1
A. false

Q. Also check Cc1cccc(Nc2ccccc2C(=O)O)c1C
A. true

Q. Also check Nc1nc2ncc(=O)[nH]c2c(=O)[nH]1
A. false

* * *

# test.method.notes: chemical genetic growth profiling, strain panel (AID 1159580);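 also: tested at 20 µM; growth read once vehicle control cultures reached saturation at 30 °C; 1 = growth at the plate median or of vehicle wells; lower values mean less growth of the strain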
# applied.conditions: S. cerevisiae deletion strains, growth OD, locus YLR027C, strain aat2, active compounds read low
In all, about 5,500 compounds went through this assay and about 2,000 (36%) were called active. Roughly 18% stayed inconclusive and do not appear here. The list shows a part of the results.
recorded.metric: normalized growth
Keep it simple and answer with nothing but the number.

Q. Find the recorded normalized growth belonging to COc1ccc2c(c1)O[C@H]1c3ccc(OC)cc3OC[C@@H]21 and report it.
A. 1.01

Q. Also check O=c1cc[nH]c(=S)[nH]1
A. 1.02

Q. Also check COc1c(OC)c2occc2c2oc(=O)ccc12
A. 0.964

Q. Also check CO[C@@]1(NC(=O)CSCC#N)C(=O)N2C(C(=O)O)=C(CSc3nnnn3C)CSC21 (stereo partly specified)
A. 0.99

Q. Also check C=C1CCC2C(CC2(C)C)C(=C)CC/C1=N\O (stereo unspecified)
A. 1

Q. Also check C=C1CCC(OC(C)=O)/C(C)=C/C[C@@H]2[C@@H]1CC2(C)C (stereo partly specified)
A. 1

Q. Also check COc1c2ccoc2c(OC)c2oc(=O)ccc12
A. 0.975

Q. Also check COc1cc([C@@H]2c3cc4c(c(O)c3C[C@H]3COC(=O)[C@@H]32)OCO4)cc(OC)c1OC
A. 0.974

Q. Also check C=CCSCC1Nc2cc(Cl)c(S(N)(=O)=O)cc2S(=O)(=O)N1 (stereo unspecified)
A. 0.996

Q. Also check Cc1cc(-c2ccccc2)nnc1NCCN1CCOCC1
A. 0.989

Q. Also check Nc1ccn(C2O[C@H](CO)[C@@H](O)[C@@H]2O)c(=O)n1 (stereo partly specified)
A. 0.993
